# Tested on: NCI-H460 lung
# assayNotes: NCI-60 one-dose screen, 48 h (100 = growth as untreated, 0 = no growth, -100 = all killed)
# conditionSummary: 10 µM unless noted
The panel holds about 83,000 compounds, 20% with a hit somewhere; the sample as a whole holds those more often.
Listed below: growth values for each entry.

>  <molecule>
O=C(NCCNc1nccc(Nc2ccc(S(=O)(=O)Nc3ccccn3)cc2)n1)c1cccc([N+](=O)[O-])c1

>  <growth [%]>
104

$$$$
>  <molecule>
Clc1ccc2c(c1)C(c1c[nH]c3ccccc13)(c1c[nH]c3ccccc13)CCO2

>  <growth [%]>
85.3

$$$$
>  <molecule>
O=S(=O)(Nc1cc(Cl)ccc1Cl)c1ccc(-c2cnc(C3CC3)o2)cc1

>  <growth [%]>
24.8

$$$$
>  <molecule>
CCN1CCN(C(=O)[C@]23CCC(C)(C)C[C@@H]2C2=CC[C@@H]4[C@@]5(C)CCC(=O)C(C)(C)[C@@H]5CC[C@@]4(C)[C@]2(C)CC3)CC1

>  <growth [%]>
25.5

$$$$
>  <molecule>
O=C(C[C@]1(O)C(=O)Nc2ccccc21)c1cccc(C(F)(F)F)c1

>  <growth [%]>
97.4

$$$$
>  <molecule>
N#CSc1c[nH]c2cccc(/C=C/C(=O)/C=C(/C=C/c3cccc4[nH]cc(SC#N)c34)OB(F)F)c12

>  <growth [%]>
4.16

$$$$
>  <molecule>
CC(C)(C)CC(C)(C)NC(=O)Nc1ncccc1OCc1ccccc1

>  <growth [%]>
106

$$$$
>  <molecule>
CCN1C(=S)N(c2ccccc2)C2C1NN=c1s/c(=C3\C(=O)N(C(C)C)c4ccccc43)c(=O)n12 (stereo not drawn)

>  <growth [%]>
47.8

$$$$
>  <molecule>
COc1ccc(-c2ccc(-c3ccc(C(=N)N)cc3)s2)cc1Cl

>  <growth [%]>
-66.4

$$$$
>  <molecule>
COCCNC(=O)Nc1ccc2nc(-c3cccs3)c(-c3cccs3)nc2c1

>  <growth [%]>
88.7

$$$$
>  <molecule>
COC1=CC(c2ccc[nH]2)=N/C1=C\c1[nH]c(C)c(CC(=O)NCc2ccccc2)c1C

>  <growth [%]>
10.9

$$$$
>  <molecule>
NC(=O)CSc1oc(-c2ccccc2)nc1S(=O)(=O)c1ccc(Br)cc1

>  <growth [%]>
71.6

$$$$
>  <molecule>
Cc1cccc(/C=C2\CN(C(=O)OC(C)(C)C)C/C(=C\c3cccc(C)c3)C2=O)c1

>  <growth [%]>
110

$$$$
>  <molecule>
O=C1c2ccccc2-c2c1c1c(=O)[nH]c3ccccc3c1n2Cc1ccccc1

>  <growth [%]>
58.9

$$$$
>  <molecule>
O=c1scc(-c2ccc(C(F)(F)F)cc2)s1

>  <growth [%]>
102

$$$$
>  <molecule>
CC1=C([Se]CC(OC(=O)CC[Se]c2ccccc2)C(=O)NC(C)(C)C)C(=O)c2ccccc2C1=O (stereo not drawn)

>  <growth [%]>
-49.2

$$$$
>  <molecule>
CCCCCCCCCCC(CN(CC)CC)C(O)c1ccccc1 (stereo not drawn)

>  <growth [%]>
21.7

$$$$
>  <molecule>
COc1ccc2c(c1)N(CCO)C1=C(C(=O)OC1)C2c1cccc(F)c1 (stereo not drawn)

>  <growth [%]>
6.1

$$$$
>  <molecule>
Cc1ccc(NC(=O)c2sc3nc(C)c(Br)c(C)c3c2N)cc1

>  <growth [%]>
54.4

$$$$
>  <molecule>
N#CC(C#N)N=Nc1ccc(Br)cc1

>  <growth [%]>
95.8

$$$$
>  <molecule>
O=C(c1ccncc1)N1N=C(c2ccc(Cl)cc2)C[C@H]1c1cn(-c2ccccc2)nc1-c1ccccc1

>  <growth [%]>
88.2

$$$$
>  <molecule>
COC(=O)c1c2c(c(C)[n+]([O-])c1C)C(=O)C(NCc1cccc(OC)c1)=CC2=O

>  <growth [%]>
14.6

$$$$
>  <molecule>
Nc1n[nH]c2cccc(C#Cc3cccc(NC(=O)c4cc(F)cc(C(F)(F)F)c4)c3)c12

>  <growth [%]>
77.8

$$$$
>  <molecule>
CCCCCCC12CCC(=O)N1CCc1cncn12 (stereo not drawn)

>  <growth [%]>
105

$$$$
>  <molecule>
CCOC(=O)C1=C(c2ccccc2)N=C2SC=C(c3ccc(Cl)cc3)N2C1c1ccc(Cl)cc1 (stereo not drawn)

>  <growth [%]>
83.3

$$$$
>  <molecule>
CCOC(=O)C(=O)C(C(=O)OCC)c1ccccc1 (stereo not drawn)

>  <growth [%]>
110

$$$$
>  <molecule>
CCCCCC(/C=N\NC(=S)N/N=C/C(=C/c1ccccc1)CCCCC)=C\c1ccccc1

>  <growth [%]>
57.8

$$$$
>  <molecule>
Cc1sc2nc(NCCc3c[nH]c4ccc(Cl)cc34)[nH]c(=O)c2c1C

>  <growth [%]>
18.6

$$$$
>  <molecule>
C=CCn1c(C)nc2ccc(Nc3nc(Nc4ccc5nc(C)n(CC=C)c5c4)c4ccccc4n3)cc21

>  <growth [%]>
-69.5

$$$$
>  <molecule>
COc1ccc(NC(=O)c2sc3nc(C)c(C(=O)/C=C/c4ccccc4)cc3c2N)cc1

>  <growth [%]>
6.63

$$$$
>  <molecule>
CCCc1c(OC(=O)c2ccccc2)nc2[nH]c(=O)sc2c1C

>  <growth [%]>
103

$$$$
>  <molecule>
N#Cc1ccc(O)c(C2=NCC(c3cccc(Oc4ccccc4)c3)O2)c1 (stereo not drawn)

>  <growth [%]>
4.55

$$$$
>  <molecule>
CN(c1cc2ncc(=O)[nH]c2cc1NC(N)=NCc1ccc(Cl)cc1)C1CCCCC1

>  <growth [%]>
40.3

$$$$

----------
# Tested on: SN12C renal
# assayNotes: NCI-60 one-dose screen, 48 h
# conditionSummary: 10 µM unless noted
# Method: Growth inhibition of the SN12C human tumor cell line is measured as a screen for anti-cancer activity. Cells are grown in 96 well plates and exposed to the test compound for 48 hours. Compounds are tested at a single concentration, which is 10^-5 M for most compounds. The reported endpoint is percent growth (GI% or GIPRCNT), where numbers from 0 - 100% represent growth inhibition, and numbers from -100% - 0 represent cell death. For example, a value of 40 represents 60% growth inhibition. […]
The panel holds about 83,000 compounds, 20% with a hit somewhere; the sample as a whole holds those more often. Active and inactive are the calls of the source. The calls were made as follows: active = growth percent below 10; inactive = the rest.
Outcome codes: active, inactive

>  <compound>
CN(C)CCNC(=O)c1ccc(-c2nc3ccc4[nH]ncc4c3c3c2C2CCC3C2)cc1 (centres undefined)

>  <className>
inactive

$$$$
>  <compound>
O=C1/C(=C/c2ccccc2Br)COc2ccc(O)cc21

>  <className>
inactive

$$$$
>  <compound>
COc1ccc(C(O)c2cc3c(N)c(C(=O)Nc4cccc(Br)c4)sc3nc2C)cc1 (centres undefined)

>  <className>
inactive

$$$$
>  <compound>
NS(=O)(=O)c1ccc(N=Nc2c(O)n(Cc3ccccc3)c3ccc(Cl)cc23)cc1

>  <className>
inactive

$$$$
>  <compound>
CN1C(=O)/C(=C\c2c(Cl)cccc2Cl)c2ccccc21

>  <className>
inactive

$$$$
>  <compound>
CC(=O)Oc1ccc(/C(=C(\C)c2ccc(Cl)cc2)c2ccc(OCCN3CCCCC3)cc2)cc1

>  <className>
inactive

$$$$
>  <compound>
N#Cc1c(-c2ccccc2)[nH]c2ncc(-c3ccccc3)n2c1=O

>  <className>
inactive

$$$$
>  <compound>
COCCOc1cc2ncnc(N3CCN(c4ncc(S(=O)(=O)N5CCCCC5)cn4)CC3)c2cc1OCCOC

>  <className>
inactive

$$$$
>  <compound>
Cc1[nH]c(C(=O)Nc2ccccc2OC2CCNCC2)c(Cl)c1Cl

>  <className>
active

$$$$
>  <compound>
N#Cc1ccc2c(c1)C(=O)c1c-2n(CCCN)c(=O)c2cc([N+](=O)[O-])ccc12

>  <className>
active

$$$$
>  <compound>
CCc1ncnc2c1ccn2C(C)c1ccc(OC)c(F)c1 (centres undefined)

>  <className>
inactive

$$$$
>  <compound>
[O-]/[N+](=C\c1ccc(-n2cc(Cc3ccccc3Cc3cn(-c4ccc(/C=[N+](/[O-])c5ccccc5)cc4)nn3)nn2)cc1)c1ccccc1

>  <className>
inactive

$$$$
>  <compound>
C#CCOc1cccc(Nc2ncnc3ccc(NC(=O)C=C)cc23)c1

>  <className>
inactive

$$$$
>  <compound>
Cc1nc2sc(C(=O)Nc3ccc(Br)cc3)c(N)c2cc1C(O)c1ccccc1 (centres undefined)

>  <className>
inactive

$$$$
>  <compound>
Cc1cc(N2CCN(CCNc3ccnc4cc(Cl)ccc34)CC2)nc(N2CCOCC2)n1

>  <className>
inactive

$$$$
>  <compound>
NC(=O)CSc1oc(-c2ccccc2)nc1S(=O)(=O)c1ccc(Br)cc1

>  <className>
inactive

$$$$
>  <compound>
CCSC(SCC)c1ccc(Cl)cc1

>  <className>
inactive

$$$$
>  <compound>
CN(C)Cc1ccc(O)c(C(=O)O)c1

>  <className>
inactive

$$$$
>  <compound>
CCCOC(=O)Nc1nc2ccc(SCC(C)C)cc2s1

>  <className>
inactive

$$$$
>  <compound>
CSc1nc2ncc([N+](=O)[O-])c(=O)n2[nH]1

>  <className>
inactive

$$$$
>  <compound>
O=C1c2c(c3c4ccccc4[nH]c3c3ccc4ccccc4c23)C(=O)N1CCN1CCOCC1

>  <className>
inactive

$$$$
>  <compound>
CC1(C)CC(=O)C2=C(C1)N(c1ccc(OC(F)(F)F)cc1)C(N)=C(C#N)C2c1ccc(Br)cc1F (centres undefined)

>  <className>
inactive

$$$$
>  <compound>
CS(=O)(=O)Nc1cc(-c2ccc3ncnc(Nc4ccc5c(cnn5Cc5ccc(F)cc5)c4)c3c2)cnc1Cl

>  <className>
inactive

$$$$
>  <compound>
COc1ccc(OC)c(/C=N/Nc2ncnc3c2c(C)nn3C)c1

>  <className>
inactive

$$$$
>  <compound>
CCN(CC)S(=O)(=O)c1ccc(S(=O)(=O)N2CCC[C@@H](C(=O)N3CCN(c4nc(C(C)C)no4)CC3)C2)cc1

>  <className>
inactive

$$$$
>  <compound>
O=CN1N=C(c2cccc(Nc3ccnc4cc(Cl)ccc34)c2)CC1c1ccccc1 (centres undefined)

>  <className>
inactive

$$$$
>  <compound>
COc1ccccc1NC(=O)N=Nc1c(O)[nH]c2ccccc12

>  <className>
inactive

$$$$
>  <compound>
Cc1ccc2c(Cn3cc(CSc4nc5ccccc5o4)nn3)cc(=O)oc2c1

>  <className>
inactive

$$$$
>  <compound>
COc1cc(/C=C/C(=O)c2ccc(F)cc2)ccc1OCCCCOc1ccc(/C=C/C(=O)c2c(C)nc3ccccc3c2C)cc1OC

>  <className>
inactive

$$$$
>  <compound>
COc1ccc(C(=O)N2c3ccccc3Sc3ccccc32)c(OC)c1

>  <className>
inactive

$$$$
>  <compound>
CCCCNC(=O)Oc1ccc(/C(=C(/C)Cc2ccc(OC)cc2)c2ccc(OCCN(CC)CC)cc2)cc1

>  <className>
inactive

$$$$
>  <compound>
O=C(/C=C(/C=C/c1ccc2[nH]ccc2c1)OB(F)F)/C=C/c1ccc2[nH]ccc2c1

>  <className>
inactive

$$$$
>  <compound>
COc1ccc(NC(=O)c2sc3nc(C)c(C(=O)/C=C/c4ccccc4)cc3c2N)cc1

>  <className>
inactive

$$$$
>  <compound>
COC12C=C/C(=C(/C(=O)OCc3ccncc3)C(=O)CCCCCCCCC3(OC)C=C/C(=C(/C(=O)OCc4ccncc4)C(=O)CCCCCCCC1)O3)O2

>  <className>
active

$$$$

Attribution: PubChem BioAssay (NCI)
